target: H278N mutant mouse delta opioid receptor (Mus musculus, UniProt P32300, H278N); construct: expressed in transfected cells; host or cells: COS-7 (transient, pCMV6c); assay: biochemical; type: binding
Sequence (P32300 whole entry H278N): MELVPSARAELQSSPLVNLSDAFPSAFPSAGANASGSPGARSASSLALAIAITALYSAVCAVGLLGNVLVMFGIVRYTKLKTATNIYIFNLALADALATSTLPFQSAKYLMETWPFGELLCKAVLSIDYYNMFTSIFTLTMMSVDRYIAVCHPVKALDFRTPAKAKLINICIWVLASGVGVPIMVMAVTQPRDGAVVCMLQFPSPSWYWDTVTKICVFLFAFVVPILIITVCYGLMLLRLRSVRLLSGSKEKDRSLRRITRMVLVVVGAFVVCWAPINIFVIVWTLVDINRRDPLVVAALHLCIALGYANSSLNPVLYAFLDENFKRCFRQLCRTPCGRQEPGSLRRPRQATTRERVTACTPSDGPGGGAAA
parameter_measured: Ki (nM)

1) CN1CC[C@]23CCCC[C@H]2[C@H]1Cc1ccc(O)cc13 : 2.8
2) CCC12CCN(CC3(O)CC3)C(Cc3ccc(O)cc31)C2(C)C (racemic) : 1.7
3) Oc1ccc2c3c1O[C@H]1c4[nH]c5ccccc5c4C[C@@]4(O)[C@@H](C2)N(CC2CC2)CC[C@]314 : 0.5

---

molecular target: D128N mutant mouse delta opioid receptor (Mus musculus, UniProt P32300, D128N); construct: expressed in transfected cells; host or cells: COS-7 (transient, pCMV6c); experiment: biochemical; assay type: binding
Sequence (P32300 whole entry D128N): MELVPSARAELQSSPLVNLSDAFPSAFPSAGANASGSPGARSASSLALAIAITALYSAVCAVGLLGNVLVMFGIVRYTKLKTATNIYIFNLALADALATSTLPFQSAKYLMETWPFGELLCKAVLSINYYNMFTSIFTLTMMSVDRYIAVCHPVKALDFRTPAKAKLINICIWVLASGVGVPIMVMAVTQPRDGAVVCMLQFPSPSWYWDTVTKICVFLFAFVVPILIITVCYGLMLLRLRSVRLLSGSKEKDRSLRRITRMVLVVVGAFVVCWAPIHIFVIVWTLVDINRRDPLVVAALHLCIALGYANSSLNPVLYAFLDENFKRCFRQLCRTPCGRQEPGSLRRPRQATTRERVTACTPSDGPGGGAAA
parameter_measured: Ki (µM)

1. Oc1ccc2c3c1O[C@H]1c4[nH]c5ccccc5c4C[C@@]4(O)[C@@H](C2)N(CC2CC2)CC[C@]314 [naltrindole] : 0.0056
2. CN1CC[C@]23CCCC[C@H]2[C@H]1Cc1ccc(O)cc13 [Levorphanol] : 4.38
3. CCC12CCN(CC3(O)CC3)C(Cc3ccc(O)cc31)C2(C)C (racemic) [Bremazocine] : 2.69

---

molecular target: mouse delta opioid receptor aspartate 95 to asparagine mutant (Mus musculus, UniProt P32300, D95N); construct: expressed in transfected cells; host or cells: COS-7; assay: Binding to delta receptor mutant with aspartate 95 converted to asparagine, COS-7 cells
Sequence (P32300 whole entry D95N): as the sequence (P32300 whole entry H278N) above, with D95N, N278H counted along it
parameter_measured: Affinity of aspartate 95 mutant and wild-type delta receptors compared

1) Oc1ccc2c3c1O[C@H]1c4[nH]c5ccccc5c4C[C@@]4(O)[C@@H](C2)N(CC2CC2)CC[C@]314 : similar
2) O=C1/C(=C/c2ccccc2)C[C@@]2(O)[C@H]3Cc4ccc(O)c5c4[C@@]2(CCN3CC2CC2)[C@H]1O5 [BNTX, 7-Benyllidenenaltrexone] : similar
3) CCC12CCN(CC3(O)CC3)C(Cc3ccc(O)cc31)C2(C)C (racemic) : similar
4) Oc1ccc2c3c1O[C@H]1c4oc5ccccc5c4C[C@@]4(O)[C@@H](C2)N(CC2CC2)CC[C@]314 : similar

---

compounds and their reported pKi
biological target: cloned mouse κ receptor (Mus musculus); construct: expressed in transfected cells; test: biochemical; format: binding
Sequence (P33534 whole entry): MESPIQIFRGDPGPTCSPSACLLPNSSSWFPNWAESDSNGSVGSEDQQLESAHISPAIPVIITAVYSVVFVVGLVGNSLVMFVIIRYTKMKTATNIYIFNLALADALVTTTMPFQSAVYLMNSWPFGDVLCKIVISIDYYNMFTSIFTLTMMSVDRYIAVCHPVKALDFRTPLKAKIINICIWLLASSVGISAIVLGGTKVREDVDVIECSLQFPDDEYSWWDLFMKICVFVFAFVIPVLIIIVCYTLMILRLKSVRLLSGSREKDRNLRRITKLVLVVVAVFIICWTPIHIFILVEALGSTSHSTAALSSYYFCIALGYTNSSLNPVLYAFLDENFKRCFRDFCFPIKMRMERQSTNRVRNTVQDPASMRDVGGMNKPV
pKi: −log10 of the molar value.
parameter_measured: pKi

1) COc1ccc2c3c1O[C@H]1[C@@H](O)C=C[C@H]4[C@@H](C2)N(C)CC[C@@]341 [codeine] : < 6.00
2) C[C@@H](O)[C@H](NC(=O)[C@H]1NC(=O)[C@H]([C@@H](C)O)NC(=O)[C@H](CCCN)NC(=O)[C@@H](Cc2c[nH]c3ccccc23)NC(=O)[C@H](Cc2ccc(O)cc2)NC(=O)[C@@H](NC(=O)[C@H](N)Cc2ccccc2)CSSC1(C)C)C(N)=O [CTOP, D-Phe-Cys-Tyr-D-Trp-Orn-Thr-Pen-Thr-NH2] : < 6.00
3) CN1CC[C@@]23CCCC[C@@H]2[C@@H]1Cc1ccc(O)cc13 [Dextrorphan] : < 6.00
